# assayExplanation: Pharmacokinetics of CV-10155 solid dosage forms in fed or fasted beagle dogs
# testContext: male, beagle, dog, plasma, po, 10 mg, AUCInf, HPMC-AS formulation, 10 mg PO, pentagastrin/fasted cohort; mean of 4 dogs
readoutKind: AUC(0-inf) (ng·h/mL)
Give the value, in units of ng·h/mL, as a plain number.

Consider the compound shown here: "C[C@@]1(O)CC[C@@]2(C)[C@@H](CC[C@@H]3[C@@H]2CC[C@]2(C)[C@@H](C(=O)Cn4cc(C#N)cn4)CC[C@@H]32)C1" What is its recorded AUC(0-inf)? 2760

----------
# assayExplanation: clinical
# testContext: human, in vivo, 60 mg
readoutKind: half-life (h)
Write the number in h without appending the unit.

Report half-life for "C[C@@]1(O)CC[C@@]2(C)[C@@H](CC[C@@H]3[C@@H]2CC[C@]2(C)[C@@H](C(=O)Cn4cc(C#N)cn4)CC[C@@H]32)C1" please. 34.5

----------
# assayExplanation: clinical
# testContext: human, in vivo, po
readoutKind: Tmax

Look at this compound and give its reported Tmax. C[C@@]1(O)CC[C@@]2(C)[C@@H](CC[C@@H]3[C@@H]2CC[C@]2(C)[C@@H](C(=O)Cn4cc(C#N)cn4)CC[C@@H]32)C1 [CV-10155] 2 to 4 h

----------
# assayExplanation: Pharmacokinetics of CV-10155 solid dosage forms in fed or fasted beagle dogs
# testContext: male, beagle, dog, plasma, po, 30 mg, Tmax, HPMC-AS formulation, 30 mg PO, pentagastrin/fasted cohort; mean of 4 dogs
readoutKind: Tmax (h)
Hi! Could you send only the number? It should be in h, unit omitted.

If you can, please state the reported Tmax value of "C[C@@]1(O)CC[C@@]2(C)[C@@H](CC[C@@H]3[C@@H]2CC[C@]2(C)[C@@H](C(=O)Cn4cc(C#N)cn4)CC[C@@H]32)C1" . 1

----------
# assayExplanation: Pharmacokinetics of CV-10155 solid dosage forms in fed or fasted beagle dogs
# testContext: male, beagle, dog, plasma, po, 10 mg, AUCLast, HPMC-AS formulation, 10 mg PO, fed cohort; mean of 4 dogs
readoutKind: AUC(0-t) (ng·h/mL)
Numbers only; they are read as ng·h/mL.

Could you tell me which AUC(0-t) is on file for "C[C@@]1(O)CC[C@@]2(C)[C@@H](CC[C@@H]3[C@@H]2CC[C@]2(C)[C@@H](C(=O)Cn4cc(C#N)cn4)CC[C@@H]32)C1" ? 2570

----------
# assayExplanation: Pharmacokinetics of CV-10155 solid dosage forms in fed or fasted beagle dogs
# testContext: male, beagle, dog, plasma, po, 10 mg, T½, HPMC-AS formulation, 10 mg PO, fed cohort; mean of 4 dogs
readoutKind: half-life (h)
I only need the number, in h, no unit after it.

What value of half-life has been reported for the following compound? C[C@@]1(O)CC[C@@]2(C)[C@@H](CC[C@@H]3[C@@H]2CC[C@]2(C)[C@@H](C(=O)Cn4cc(C#N)cn4)CC[C@@H]32)C1 [CV-10155] 13.1

----------
# assayExplanation: Pharmacokinetics of CV-10155 in preclinical rodent studies
# testContext: male, rodent, in vivo, po, 5 mg/kg
readoutKind: Tmax
A complete answer gives the number and then names the unit.

# Tmax lookup, item "C[C@@]1(O)CC[C@@]2(C)[C@@H](CC[C@@H]3[C@@H]2CC[C@]2(C)[C@@H](C(=O)Cn4cc(C#N)cn4)CC[C@@H]32)C1" 49.8 min

----------
# assayExplanation: Pharmacokinetics of CV-10155 in preclinical rodent studies
# testContext: both, rodent, in vivo, po, 3 mg/kg
readoutKind: Cmax

Would you kindly share the measured Cmax for "C[C@@]1(O)CC[C@@]2(C)[C@@H](CC[C@@H]3[C@@H]2CC[C@]2(C)[C@@H](C(=O)Cn4cc(C#N)cn4)CC[C@@H]32)C1" ? 270 to 440 ng/mL

----------
# assayExplanation: Pharmacokinetics of CV-10155 solid dosage forms in fed or fasted beagle dogs
# testContext: male, beagle, dog, plasma, po, 30 mg, MRTInf, HPMC-AS formulation, 30 mg PO, pentagastrin/fasted cohort; mean of 4 dogs
readoutKind: MRT inf (h)
Numbers only here, please. The scale is h.

Would you kindly share the measured MRT inf for "C[C@@]1(O)CC[C@@]2(C)[C@@H](CC[C@@H]3[C@@H]2CC[C@]2(C)[C@@H](C(=O)Cn4cc(C#N)cn4)CC[C@@H]32)C1" ? 17.2

----------
# assayExplanation: clinical
# testContext: human, in vivo, po
readoutKind: half-life

# get_value(readout='half-life', item= "C[C@@]1(O)CC[C@@]2(C)[C@@H](CC[C@@H]3[C@@H]2CC[C@]2(C)[C@@H](C(=O)Cn4cc(C#N)cn4)CC[C@@H]32)C1" ) 24 to 26 h

----------
# assayExplanation: Pharmacokinetics of CV-10155 in preclinical rodent studies
# testContext: male, rodent, in vivo, po, 5 mg/kg
readoutKind: AUC(0-inf)

Look up AUC(0-inf) for this compound: "C[C@@]1(O)CC[C@@]2(C)[C@@H](CC[C@@H]3[C@@H]2CC[C@]2(C)[C@@H](C(=O)Cn4cc(C#N)cn4)CC[C@@H]32)C1" 2610 ng·h/mL

----------
# assayExplanation: Pharmacokinetics of CV-10155 solid dosage forms in fed or fasted beagle dogs
# testContext: male, beagle, dog, plasma, po, 10 mg, Tmax, HPMC-AS formulation, 10 mg PO, fed cohort; mean of 4 dogs
readoutKind: Tmax (h)
Write the number in h without appending the unit.

Please look up its Tmax: "C[C@@]1(O)CC[C@@]2(C)[C@@H](CC[C@@H]3[C@@H]2CC[C@]2(C)[C@@H](C(=O)Cn4cc(C#N)cn4)CC[C@@H]32)C1" 1.13

----------
# assayExplanation: clinical
# testContext: human, in vivo, 60 mg
readoutKind: Cmax (µg/mL)
Just the number please, in µg/mL, no unit attached.

Which Cmax is reported for this compound? C[C@@]1(O)CC[C@@]2(C)[C@@H](CC[C@@H]3[C@@H]2CC[C@]2(C)[C@@H](C(=O)Cn4cc(C#N)cn4)CC[C@@H]32)C1 [CV-10155] 0.253

----------
# assayExplanation: Pharmacokinetics of CV-10155 solid dosage forms in fed or fasted beagle dogs
# testContext: male, beagle, dog, plasma, po, 10 mg, AUCLast, HPMC-AS formulation, 10 mg PO, pentagastrin/fasted cohort; mean of 4 dogs
readoutKind: AUC(0-t) (ng·h/mL)
Answer with a number only, understood to be in ng·h/mL.

Which value of AUC(0-t) has been reported for "C[C@@]1(O)CC[C@@]2(C)[C@@H](CC[C@@H]3[C@@H]2CC[C@]2(C)[C@@H](C(=O)Cn4cc(C#N)cn4)CC[C@@H]32)C1" in the records? 2030

----------
# assayExplanation: Pharmacokinetics of CV-10155 solid dosage forms in fed or fasted beagle dogs
# testContext: male, beagle, dog, plasma, po, 10 mg, Cmax, HPMC-AS formulation, 10 mg PO, fed cohort; mean of 4 dogs
readoutKind: Cmax (ng/mL)
API: value field is a number in ng/mL; no unit string.

Could you tell me which Cmax is on file for C[C@@]1(O)CC[C@@]2(C)[C@@H](CC[C@@H]3[C@@H]2CC[C@]2(C)[C@@H](C(=O)Cn4cc(C#N)cn4)CC[C@@H]32)C1 [CV-10155] ? 442

----------
# assayExplanation: Pharmacokinetics of CV-10155 in preclinical rodent studies
# testContext: male, rodent, in vivo, po, 2 mg/kg
readoutKind: Cmax (ng/mL)
Return type: number; implicit unit ng/mL.

Give the measured Cmax of C[C@@]1(O)CC[C@@]2(C)[C@@H](CC[C@@H]3[C@@H]2CC[C@]2(C)[C@@H](C(=O)Cn4cc(C#N)cn4)CC[C@@H]32)C1 [CV-10155] . 224

----------
# assayExplanation: Pharmacokinetics of CV-10155 solid dosage forms in fed or fasted beagle dogs
# testContext: male, beagle, dog, plasma, po, 10 mg, T½, HPMC-AS formulation, 10 mg PO, pentagastrin/fasted cohort; mean of 4 dogs
readoutKind: half-life
Could you write the number and then its unit?

Query (molecule): C[C@@]1(O)CC[C@@]2(C)[C@@H](CC[C@@H]3[C@@H]2CC[C@]2(C)[C@@H](C(=O)Cn4cc(C#N)cn4)CC[C@@H]32)C1 [CV-10155] ; field requested: half-life 13.8 h

----------
# assayExplanation: Pharmacokinetics of CV-10155 solid dosage forms in fed or fasted beagle dogs
# testContext: male, beagle, dog, plasma, po, 10 mg, AUCInf, HPMC-AS formulation, 10 mg PO, pentagastrin/fasted cohort; individual dogs
readoutKind: AUC(0-inf)

Dear colleague, I am looking for the recorded AUC(0-inf) of the following compound: "C[C@@]1(O)CC[C@@]2(C)[C@@H](CC[C@@H]3[C@@H]2CC[C@]2(C)[C@@H](C(=O)Cn4cc(C#N)cn4)CC[C@@H]32)C1" 2630 ng·h/mL
